Ref: patent US20100260765A1

Biological target: human KDR (VEGFR2) on cells (human, UniProt P35968 20-1356); note: test concentration or dose not given here
Sequence (P35968 20-1356): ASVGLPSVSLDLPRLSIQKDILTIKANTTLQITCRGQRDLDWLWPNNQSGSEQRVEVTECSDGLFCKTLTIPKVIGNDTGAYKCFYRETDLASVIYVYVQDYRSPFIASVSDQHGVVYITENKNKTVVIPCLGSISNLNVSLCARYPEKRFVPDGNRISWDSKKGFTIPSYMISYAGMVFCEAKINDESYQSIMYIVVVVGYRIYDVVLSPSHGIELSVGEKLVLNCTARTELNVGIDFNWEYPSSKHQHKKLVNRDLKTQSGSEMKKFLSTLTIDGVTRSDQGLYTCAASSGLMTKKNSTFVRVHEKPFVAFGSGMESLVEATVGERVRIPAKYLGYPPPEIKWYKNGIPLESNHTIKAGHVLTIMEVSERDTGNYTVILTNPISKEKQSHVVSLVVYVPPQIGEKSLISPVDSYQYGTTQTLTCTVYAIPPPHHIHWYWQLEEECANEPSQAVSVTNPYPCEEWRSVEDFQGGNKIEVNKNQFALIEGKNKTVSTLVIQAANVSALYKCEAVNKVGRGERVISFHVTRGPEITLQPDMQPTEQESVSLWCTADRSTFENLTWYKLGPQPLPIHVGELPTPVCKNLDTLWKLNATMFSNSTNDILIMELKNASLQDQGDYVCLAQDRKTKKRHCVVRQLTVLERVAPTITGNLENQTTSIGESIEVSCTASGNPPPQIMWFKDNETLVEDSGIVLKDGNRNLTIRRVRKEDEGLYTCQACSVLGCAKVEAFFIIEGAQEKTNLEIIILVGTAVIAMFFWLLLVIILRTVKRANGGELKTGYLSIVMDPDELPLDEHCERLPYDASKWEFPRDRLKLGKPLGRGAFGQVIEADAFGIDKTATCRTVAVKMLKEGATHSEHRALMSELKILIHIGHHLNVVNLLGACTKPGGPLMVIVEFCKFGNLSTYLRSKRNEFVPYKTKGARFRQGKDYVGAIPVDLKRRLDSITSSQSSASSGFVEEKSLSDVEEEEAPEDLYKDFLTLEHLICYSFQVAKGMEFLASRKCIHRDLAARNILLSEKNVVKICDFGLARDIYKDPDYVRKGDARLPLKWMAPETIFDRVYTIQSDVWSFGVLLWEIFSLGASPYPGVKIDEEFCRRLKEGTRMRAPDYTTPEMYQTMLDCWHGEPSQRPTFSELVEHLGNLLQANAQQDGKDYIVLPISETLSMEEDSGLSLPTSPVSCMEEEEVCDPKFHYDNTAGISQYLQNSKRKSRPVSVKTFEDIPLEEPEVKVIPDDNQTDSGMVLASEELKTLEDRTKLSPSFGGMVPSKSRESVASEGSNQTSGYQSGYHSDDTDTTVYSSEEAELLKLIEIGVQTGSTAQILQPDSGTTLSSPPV
Assay: cell-based or functional assay
readout kind: % Inhibition of VEGF165-mediated pTyr Activity, Average (%)
The answer is to be given in %; state only the numeric part.

// below: answered binders
anti-KDR monoclonal antibody 27A3 (antibody, V domains shown, Fully human mAb from XenoMouse (IgG2 or IgG4 strain); hybridoma supernatant) VH: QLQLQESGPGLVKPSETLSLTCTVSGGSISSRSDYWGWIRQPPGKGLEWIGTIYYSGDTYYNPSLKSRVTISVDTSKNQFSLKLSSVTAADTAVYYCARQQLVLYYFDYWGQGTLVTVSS VL: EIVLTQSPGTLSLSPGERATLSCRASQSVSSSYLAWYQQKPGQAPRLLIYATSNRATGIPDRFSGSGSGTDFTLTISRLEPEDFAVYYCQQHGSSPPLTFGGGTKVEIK : 62
anti-KDR monoclonal antibody 22B8 (antibody, V domains shown, Fully human mAb from XenoMouse (IgG2 or IgG4 strain); hybridoma supernatant) VH: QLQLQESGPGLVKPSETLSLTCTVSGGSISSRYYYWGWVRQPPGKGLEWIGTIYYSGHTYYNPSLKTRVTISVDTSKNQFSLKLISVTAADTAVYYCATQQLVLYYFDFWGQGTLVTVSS VL: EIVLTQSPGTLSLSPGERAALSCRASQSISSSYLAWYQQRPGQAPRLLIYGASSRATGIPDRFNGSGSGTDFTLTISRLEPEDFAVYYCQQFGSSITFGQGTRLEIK : 67
anti-KDR monoclonal antibody 29A3 (antibody, V domains shown, Fully human mAb from XenoMouse (IgG2 or IgG4 strain); hybridoma supernatant) VH: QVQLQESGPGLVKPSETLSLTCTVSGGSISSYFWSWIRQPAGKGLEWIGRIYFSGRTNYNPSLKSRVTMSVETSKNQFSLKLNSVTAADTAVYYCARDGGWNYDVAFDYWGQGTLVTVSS VL: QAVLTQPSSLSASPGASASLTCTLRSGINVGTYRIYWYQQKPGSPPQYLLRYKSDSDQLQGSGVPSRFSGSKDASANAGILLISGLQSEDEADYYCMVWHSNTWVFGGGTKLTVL : 77
anti-KDR monoclonal antibody 33D5 (antibody, V domains shown, Fully human mAb from XenoMouse (IgG2 or IgG4 strain); hybridoma supernatant) VH: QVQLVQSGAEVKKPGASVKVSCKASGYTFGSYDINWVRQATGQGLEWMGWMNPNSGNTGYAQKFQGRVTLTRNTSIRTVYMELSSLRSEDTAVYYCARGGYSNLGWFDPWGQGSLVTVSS VL: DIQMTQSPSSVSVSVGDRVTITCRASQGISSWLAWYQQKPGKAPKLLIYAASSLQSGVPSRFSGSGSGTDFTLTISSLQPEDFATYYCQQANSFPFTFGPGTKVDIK : 77

# context switch: different binder, same % Inhibition of VEGF165-mediated pTyr Activity, Average
Query: State the recorded % Inhibition of VEGF165-mediated pTyr Activity, Average for this entry: anti-KDR monoclonal antibody 21H6 (antibody, V domains shown, Fully human mAb from XenoMouse; hybridoma supernatant) VH: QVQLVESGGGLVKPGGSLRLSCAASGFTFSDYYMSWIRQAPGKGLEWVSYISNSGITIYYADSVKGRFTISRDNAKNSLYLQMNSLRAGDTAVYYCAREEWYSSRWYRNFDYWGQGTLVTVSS VL: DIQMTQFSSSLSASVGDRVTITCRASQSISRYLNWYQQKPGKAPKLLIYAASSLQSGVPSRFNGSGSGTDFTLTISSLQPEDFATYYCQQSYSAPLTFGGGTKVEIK
Reply: 72
